assay: Pharmacokinetics in plasma, brain and CSF; assay type: in vivo, CD-1 mice; conditions: male, CD-1, mouse, plasma, ip; 0.2 mg/kg i.p., mice; read-out: AUC0→inf plasma (converted)
property.label: AUC(0-inf) (ng·h/mL)
Numbers only, in ng·h/mL.

-- ask What value of AUC(0-inf) has been recorded for this entry: COC(=O)C(C)(NC(=O)c1cc(C)n(-c2cccc(C(F)(F)F)c2)n1)c1cccs1 (stereo not shown) [‘4042]
-- reply 22.5

====

biological target: hCB1 (Homo sapiens, UniProt P21554); assay: bioSens-All ebBRET effector biosensor signaling profiling, HEK293; type: cell-based; parameters: host or cells: HEK293 (HEK293SL clone), transient; settings: hCB1 GoB pEC50 [95% CI]
Sequence (P21554 whole entry): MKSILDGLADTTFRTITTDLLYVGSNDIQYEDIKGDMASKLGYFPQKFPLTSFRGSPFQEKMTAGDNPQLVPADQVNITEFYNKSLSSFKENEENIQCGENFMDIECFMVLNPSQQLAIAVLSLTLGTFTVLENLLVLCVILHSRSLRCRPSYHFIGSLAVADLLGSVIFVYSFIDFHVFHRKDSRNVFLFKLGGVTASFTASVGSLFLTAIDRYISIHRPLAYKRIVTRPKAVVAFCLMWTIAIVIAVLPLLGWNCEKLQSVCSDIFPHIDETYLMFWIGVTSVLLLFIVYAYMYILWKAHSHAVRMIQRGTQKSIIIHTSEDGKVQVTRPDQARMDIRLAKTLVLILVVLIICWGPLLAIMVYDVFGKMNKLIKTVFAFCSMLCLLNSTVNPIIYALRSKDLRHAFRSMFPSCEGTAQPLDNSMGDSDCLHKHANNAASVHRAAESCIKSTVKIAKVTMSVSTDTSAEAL
Exercise: for every item that follows, state its recorded pEC50.
One number for each entry, as −log10 of the molar value.

Answer for every listed entry: what is its pEC50? The entries follow.
1. COC(=O)[C@@H]1[C@@H]2CCC[C@@H]2CN1C(=O)c1cc(C)n(-c2cccc(C(F)(F)F)c2)n1 [‘6439]
2. COC(=O)C(NC(=O)c1cc(C)n(-c2cccc(F)c2)n1)c1cccs1 (stereo not drawn) [‘51486]
3. COC(=O)[C@@H]1[C@@H]2CCC[C@@H]2CN1C(=O)c1cc(C)n(-c2cccc(Cl)c2)n1 [‘10010]

-- reply
7.20
6.20
6.10

====

molecular target: hCB1 (Homo sapiens, UniProt P21554); assay: bioSens-All ebBRET effector biosensor signaling profiling, HEK293; format: cell-based; parameters: host or cells: HEK293 (HEK293SL clone), transient; settings: HEK293, read-out: hCB1 Gz Emax [95% CI]
Exercise: for every item that follows, state its recorded Emax.
Numbers only, in %.

Consider the reported Emax for these molecules:
COC(=O)C(NC(=O)c1cc(C)n(-c2cccc(C(F)(F)F)c2)n1)c1cccs1 (stereo not shown)	121
Cc1cc(C(=O)NC(c2ccccc2)c2ccco2)nn1-c1cccc(C#N)c1 (stereo not shown)	51
COC(=O)[C@](C)(NC(=O)c1cc(C)n(-c2cccc(C(F)(F)F)c2)n1)c1cccs1	98

-- ask What value of Emax has been recorded for this entry: "COC(=O)[C@@H]1[C@@H]2CCC[C@@H]2CN1C(=O)c1cc(C)n(-c2cccc(Cl)c2)n1"
-- reply 144

====

molecular target: hCB2 (Homo sapiens, UniProt P34972); assay: bioSens-All ebBRET effector biosensor signaling profiling, HEK293; type: cell-based; set-up: host or cells: HEK293 (HEK293SL clone), transient; details: read-out: hCB2 Barr2 + GRK2 EC50 [95% CI]; ßarrestin-2 sensor with GRK2
Sequence (P34972 whole entry): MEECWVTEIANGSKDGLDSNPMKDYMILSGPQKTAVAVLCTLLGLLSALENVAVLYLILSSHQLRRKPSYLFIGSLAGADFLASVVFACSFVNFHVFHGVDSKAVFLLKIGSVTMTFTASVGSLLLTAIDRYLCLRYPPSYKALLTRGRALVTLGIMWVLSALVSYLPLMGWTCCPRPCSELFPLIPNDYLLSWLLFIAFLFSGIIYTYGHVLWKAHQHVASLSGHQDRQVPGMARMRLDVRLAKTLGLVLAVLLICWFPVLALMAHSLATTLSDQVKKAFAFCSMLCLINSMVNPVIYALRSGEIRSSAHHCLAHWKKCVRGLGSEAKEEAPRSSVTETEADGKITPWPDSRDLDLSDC
property.label: pEC50
Give bare numbers, as −log10 of the molar value.

-- ask What value of pEC50 has been recorded for this entry: CCCCC/C=C\C/C=C\C/C=C\C/C=C\CCCC(=O)OC(CO)CO [2-AG, reference compound]
-- reply 5.73

====

Exercise: for every item that follows, state its recorded EC50.
target: hCB1 (Homo sapiens); test: bioSens-All ebBRET effector biosensor signaling profiling, HEK293; format: cell-based; parameters: host or cells: HEK293 (HEK293SL clone), transient; conditions: hCB1 GoB EC50 [95% CI], GoB sensor
Answers are plain numbers, in µM.

COC(=O)[C@](C)(NC(=O)c1cc(C)n(-c2cccc(C(F)(F)F)c2)n1)c1cccs1	0.018
Cc1cc(C(=O)NC(c2ccccc2)c2ccco2)nn1-c1cccc(C(F)(F)F)c1 (stereo not drawn)	0.0917

Answer for every listed entry: what is its EC50? The entries follow.
1. Cc1cc(C(=O)NC(c2ccco2)c2ccco2)nn1-c1cccc(C(F)(F)F)c1
2. COC(=O)C(C)(NC(=O)c1cc(C)n(-c2cccc(C(F)(F)F)c2)n1)c1cccs1 (stereo not drawn)
3. COC(=O)C(NC(=O)c1cc(C)n(-c2cccc(C(F)(F)F)c2)n1)c1cccs1 (stereo not drawn)
4. Cc1cc(C(=O)NC(c2ccccc2)c2ccco2)nn1-c1cccc(C#N)c1 (stereo not drawn)

-- reply
0.0373
0.00064
0.0184
0.0448

====

target: hCB1 (Homo sapiens); assay: GloSensor cAMP accumulation assay; type: cell-based; set-up: host or cells: HEK293 (HEK293SL clone), transient
Exercise: for every item that follows, state its recorded EC50.
Numbers only, in nM.

COC(=O)C(NC(=O)c1cc(C)n(-c2cccc(C(F)(F)F)c2)n1)c1cccs1 (centres unmarked) [‘60154]	25.1

--- query ---
-- ask What value of EC50 has been recorded for this entry: COC(=O)C(C)(NC(=O)c1cc(C)n(-c2cccc(C(F)(F)F)c2)n1)c1cccs1 (centres unmarked) [‘4042]
-- reply 0.0398

====

biological target: hCB1 (Homo sapiens, UniProt P21554); experiment: bioSens-All ebBRET effector biosensor signaling profiling, HEK293; type: cell-based; set-up: host or cells: HEK293 (HEK293SL clone), transient; conditions: read-out: hCB1 GoB EC50 [95% CI]; GoB sensor
property.label: pEC50
One number for each entry, as −log10 of the molar value.

-- ask What value of pEC50 has been recorded for this entry: "COC(=O)[C@@H]1[C@@H]2CC[C@@H]2CN1C(=O)c1cc(C)n(-c2cccc(C(F)(F)F)c2)n1"
-- reply 6.51

====

target: hCB1 (Homo sapiens, UniProt P21554); assay: bioSens-All ebBRET effector biosensor signaling profiling, HEK293; type: cell-based; design: host or cells: HEK293 (HEK293SL clone), transient; conditions: read-out: hCB1 Gi1 EC50 [95% CI]; Gi1 sensor
property.label: EC50
The answer consists of two parts: a number and, after it, its unit.

-- ask What value of EC50 has been recorded for this entry: "COC(=O)[C@@H]1[C@@H]2CC[C@@H]2CN1C(=O)c1cc(C)n(-c2cccc(C(F)(F)F)c2)n1"
-- reply 345 nM

====

target: hCB1 (Homo sapiens, UniProt P21554); assay: bioSens-All ebBRET effector biosensor signaling profiling, HEK293; format: cell-based; design: host or cells: HEK293 (HEK293SL clone), transient; settings: hCB1 GoB pEC50 [95% CI], GoB sensor
Exercise: for every item that follows, state its recorded pEC50.
Give bare numbers, as −log10 of the molar value.

Consider the reported pEC50 for these compounds:
COC(=O)[C@](C)(NC(=O)c1cc(C)n(-c2cccc(C(F)(F)F)c2)n1)c1cccs1	7.80
Cc1cc(C(=O)NC(c2ccccc2)c2ccco2)nn1-c1cccc(C#N)c1 (stereo not shown)	7.40
COC(=O)C(C)(NC(=O)c1cc(C)n(-c2cccc(C(F)(F)F)c2)n1)c1cccs1 (stereo not shown)	9.20

--- query ---
-- ask What value of pEC50 has been recorded for this entry: "COC(=O)[C@@](C)(NC(=O)c1cc(C)n(-c2cccc(C(F)(F)F)c2)n1)c1cccs1"
-- reply 9.54

====

Exercise: for every item that follows, state its recorded Emax.
biological target: CB1 (Rattus norvegicus); construct: membrane preparations from rat brain (source of CB1); tissue Bioivt RAT00BRAINMZN; host or cells: rat brain; assay: Radioligand competition binding with [3H]-CP-55,940, rat brain membranes; conditions: maximal radioligand displacement; read-out: rCB1 binding Emax [SEM]
Sequence (P20272 whole entry): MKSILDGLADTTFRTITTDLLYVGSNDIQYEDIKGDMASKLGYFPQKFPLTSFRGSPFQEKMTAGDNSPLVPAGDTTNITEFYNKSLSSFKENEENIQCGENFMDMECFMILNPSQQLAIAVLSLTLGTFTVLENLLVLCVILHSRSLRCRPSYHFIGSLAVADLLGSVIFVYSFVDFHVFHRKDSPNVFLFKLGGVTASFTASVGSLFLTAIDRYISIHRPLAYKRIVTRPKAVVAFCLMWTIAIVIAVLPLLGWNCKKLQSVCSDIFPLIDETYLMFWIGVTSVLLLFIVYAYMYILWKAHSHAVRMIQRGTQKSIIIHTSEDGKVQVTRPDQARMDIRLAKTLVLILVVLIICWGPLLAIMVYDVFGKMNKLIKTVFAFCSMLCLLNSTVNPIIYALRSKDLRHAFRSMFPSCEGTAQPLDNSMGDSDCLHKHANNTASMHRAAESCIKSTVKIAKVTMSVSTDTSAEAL
One number for each entry, in %.

COC(=O)[C@@H]1[C@@H]2CCC[C@@H]2CN1C(=O)c1cc(C)n(-c2cccc(Cl)c2)n1	101
COC(=O)[C@@H](c1cccs1)N(C)C(=O)c1cc(C)n(-c2cccc(C(F)(F)F)c2)n1	96
Cn1nc(-c2nnc(C(C)(C)Oc3ccc(C(F)(F)F)cc3)o2)c2ccccc2c1=O	82.6

--- query ---
-- ask What value of Emax has been recorded for this entry: COC(=O)C(NC(=O)c1cc(C)n(-c2cccc(C(F)(F)F)c2)n1)c1cccs1 (stereo not shown)
-- reply 110

====

Exercise: for every item that follows, state its recorded EC50.
molecular target: hCB1 (Homo sapiens, UniProt P21554); test: bioSens-All ebBRET effector biosensor signaling profiling, HEK293; type: cell-based; design: host or cells: HEK293 (HEK293SL clone), transient; details: hCB1 Gi2 EC50 [95% CI], Gi2 sensor
Give bare numbers, in nM.

COC(=O)[C@@](C)(NC(=O)c1cc(C)n(-c2cccc(C(F)(F)F)c2)n1)c1cccs1	0.28

-- ask What value of EC50 has been recorded for this entry: COC(=O)C(C)(NC(=O)c1cc(C)n(-c2cccc(C(F)(F)F)c2)n1)c1cccs1 (centres unmarked)
-- reply 0.56

====

Exercise: for every item that follows, state its recorded EC50.
biological target: hCB2 (Homo sapiens); assay: Cerep cAMP assay; format: cell-based

COC(=O)C(C)(NC(=O)c1cc(C)n(-c2cccc(C(F)(F)F)c2)n1)c1cccs1 (centres unmarked)	0.0112 nM

--- query ---
-- ask EC50 of Cc1cc(C(=O)N2CC3(CCC3)C2C2CCCO2)nn1-c1cccc(C(F)(F)F)c1 (centres unmarked) on hCB2 (Homo sapiens)?
-- reply 4.3 nM

These data points were gathered from paper doi:10.1101/2023.02.27.530254.
